Cited source for all entries: paper PMC4721062

Entries annotated with measured killing at 25 µM
Test system: adult S. japonicum
Assay: microbe, parasite or virus in culture
Format: cell-based
Conditions: Schistosoma japonicum; adult worms, 25 μM, 24 h; read-out: Killing activity 24hr
Experimental: ICR mice (20–22 g), were obtained from the Shanghai Sub-Center of Experimental Animals, Chinese Academy of Sciences. They were maintained at the Department of Experimental Animals, Jiangsu Institute of Parasitic Diseases. […] Adult worms were cultured in a 24-well culture plate for 30–60 min at 37 °C, in a humid atmosphere with 5 % CO2. […] The adult worm mobility and parasite survival rates were monitored using an inverted phase contrast microscope, at 24, 48 and 72 h. […]

# Compound, Target, killing at 25 µM
records = [
    ("N#Cc1c(-c2ccc(O)cc2)no[n+]1[O-]", "adult S. japonicum", "50%"),
    ("O=C(C1CCCCC1)N1CC(=O)N2CCc3ccccc3C2C1 (stereo not drawn) [PZQ, praziquantel, reference compound]", "adult S. japonicum", "25%"),
    ("N#Cc1c(-c2ccc(OCc3ccccc3)cc2)no[n+]1[O-]", "adult S. japonicum", "100%"),
    ("Cc1ccc(-c2no[n+]([O-])c2C#N)cc1", "adult S. japonicum", "100%"),
    ("N#Cc1c(-c2ccc(CBr)cc2)no[n+]1[O-]", "adult S. japonicum", "90%"),
    ("N#Cc1c(-c2ccc(OCCBr)cc2)no[n+]1[O-]", "adult S. japonicum", "80%"),
]
